compounds and their reported melting point

Identify measured melting point associated with `O=C(CCCO)N1CCCCC1`
31 to 33 °C

Quickly give me recorded melting point for `CC(C)(C)OC(=O)N1CCC[C@@H](Nc2nccc(-c3c(-c4cccc(C(N)=O)c4)nc4sccn34)n2)C1`
161 to 165 °C

* * *

MEASURE_NAME: melting point

For the molecule CN(C(=O)CN1C(=O)C(NC(=O)Nc2cccc(C#N)c2)N=C(CN2CCCCC2)c2ccccc21)c1ccccc1 (centres undefined) , report melting point.
145 to 150 °C

* * *

Reported melting point is given for each of the following molecules.

As a guide, the following entries are already answered.
Return the recorded melting point value; entry: `O=C(O)c1ccc(NCCc2ccccc2)cc1`
123 to 125 °C

For the molecule `CN(O)C(=O)C(=Cc1ccc2ccccc2c1)c1ccc(Br)cc1` , give its reported melting point.
118 to 120 °C

---
Output measured melting point for this item: `CCC(=O)c1cc(CC)c(OC)cc1OC`
64 to 65 °C

Indicate the recorded melting point value for this molecule: `CC(=O)N[C@@H](CSC(=O)c1ccccc1)C(=O)NCCSC(=O)C(C)C`
137 to 138 °C

Look up melting point of N[C@@H]1CN(c2c(F)cc3c(=O)c(C(=O)O)cn(C4CC4)c3c2F)C[C@@H]1n1ccnn1 (relative stereo) and report it.
245 to 247 °C

Please report melting point for the following molecule: CCCC(c1ccc(C)cc1)n1c(C(=O)OC)cnc1S (stereo not given)
209 to 211 °C

Please look at this molecule and report its melting point: `CCCS(=O)(=O)c1cccnc1S(N)(=O)=O`
153 to 157 °C

Give the reported value of melting point for this record: `COCc1nnc(-c2cccnc2)n1-c1c(Cl)c(C)cc2[nH]c(=O)c(=O)[nH]c12`
229 to 231 °C

Please indicate melting point recorded for `O=C(Cn1nc2ccccc2n1)Nc1ccc(-n2nc(C(F)(F)F)cc2C2CC2)nc1`
193 to 198 °C

Find the measured melting point of `Oc1cc2c(cc1CNc1ccc(F)cc1F)OCC2` and report it.
119 to 121 °C

Supply recorded melting point for COc1ccc(N2CCN(c3c(C)c(C)c4c(c3C)C(c3ccc(C)nc3)C(C)(C)O4)CC2)cc1 (stereo not given) here.
131 to 133 °C

Identify measured melting point associated with `COc1ccc(C2=NNC(=O)CC2)cc1N`
218 to 220 °C

Source listed as a melting point compilation (Tetko et al.; mined from patent text by program, amines drawn as free bases though some values may be those of a salt).
